target: T1, recombinant human Sortilin (human, UniProt Q99523 78-830); assay: flow cytometry, 293 cells expressing recombinant human Sortilin, 10 ug/ml antibody
T1 construct: also called hSort; SORT1
Decide using MFI: a value greater than or equal to 9000 MFI is Y, a smaller one is N.

{"columns": ["binder", "qualitative-label"],
 "data": [
  ["anti-Sortilin antibody S-16 (antibody, V domains shown, IgG) VH: QVQLVQSGAEVKKPGSSVKVSCKASGGTFSSYAISWVRQAPGQGLEWMGGIIPIFGTANYAQKFQGRVTITADESTSTAYMELSSLRSEDTAVYYCARSPYSGTRDFDLWGRGTLVTVSS VL: DIQMTQSPSSVSASVGDRVTITCRASQGISSWLAWYQQKPGKAPKLLIYAASNLQSGVPSRFSGSGSGTDFTLTISSLQPEDFATYYCQQGNSYPITFGGGTKVEIK", "N"],
  ["anti-Sortilin antibody S-19 (antibody, V domains shown, IgG) VH: QVQLVQSGAEVKKPGSSVKVSCKASGGTFSSYAISWVRQAPGQGLEWMGGIIPIFGTASYAQKFQGRVTITADESTSTAYMELSSLRSEDTAVYYCARESRIPGSGYYYYYGMDVWGQGTTVTVSS VL: DIQMTQSPSSLSASVGDRVTITCRASQSISSYLNWYQQKPGKAPKLLIYSASSLQSGVPSRFSGSGSGTDFTLTISSLQPEDFATYYCQQTDGKPPTFGGGTKVEIK", "Y"],
  ["anti-Sortilin antibody S-61 (antibody, V domains shown, IgG) VH: QVQLQESGPGLVKPSETLSLTCAVSGYSISSGYYWGWIRQPPGKGLEWIGSIYHSGSTYYNPSLKSRVTISVDTSKNQFSLKLSSVTAADTAVYYCARGSPRFYYGSGSYLDLFDIWGQGTMVTVSS VL: EIVMTQSPATLSVSPGERATLSCRASQSVSSNLAWYQQKPGQAPRLLIYGASTRATGIPARFSGSGSGTEFTLTISSLQSEDFAVYYCQEYLNYPITFGGGTKVEIK", "N"],
  ["anti-Sortilin antibody S-18 (antibody, V domains shown, IgG) VH: QVQLVQSGAEVKKPGSSVKVSCKASGGTFSSYAISWVRQAPGQGLEWMGSIIPIFGTANYAQKFQGRVTITADESTSTAYMELSSLRSEDTAVYYCARDKHGRRGYYYYMDVWGKGTTVTVSS VL: EIVLTQSPATLSLSPGERATLSCRASQSVSSYLAWYQQKPGQAPRLLIYDASNRATGIPARFSGSGSGTDFTLTISSLEPEDFAVYYCQQGANAPPRTFGGGTKVEIK", "Y"],
  ["anti-Sortilin antibody S-55 (antibody, V domains shown, IgG) VH: QVQLQESGPGLVKPSETLSLTCAVSGYSISSGYYWGWIRQPPGKGLEWIGSIYHSGSTYYNPSLKSRVTISVDTSKNQFSLKLSSVTAADTAVYYCARGRPELGWDKYFQHWGQGTLVTVSS VL: DIQMTQSPSSVSASVGDRVTITCRASQGISRWLAWYQQKPGKAPKLLIYAASSLQSGVPSRFSGSGSGTDFTLTISSLQPEDFATYYCQQANALPTFGGGTKVEIK", "Y"]
]}
